# Tested on: HEK293 cells
# procedureDetails: Preliminary screening as DNA vectors, GFP transfection of HEK293 cells
# Type: cell-based
# statedConditions: amino lipid/DOPE liposome with 75 ng plasmid DNA (psin-EGFP-IRES-Puro); number of GFP-expressing cells divided by total nuclei (Hoechst)
# Description: Cell line: HEK293 cells (ATCC CRL-1573™) Medium: DMEM supplemented with 10% fetal bovine serum (Invitrogen) Mode of screening: cell transfection on 96-well plates Detection (readout): percentage of the number of GFP fluorescent cells relative to the total number of cells (the total number of cells was measured using nucleus dye Hoechst—see FIG. 2). […] 4. […] The absolute transfection efficiency was calculated as follows: […]
reportedMetric: Absolute DNA transfection efficiency in HEK293 cells (%)
Provide the reading as a plain figure in %.

Entry CCCCCCCCCCCCCCCNc1nc(NCCN2CCN(C)CC2)nc(SCCCCCCCC)n1 [S8N15 D5] ; Absolute DNA transfection efficiency in HEK293 cells = 10.4

The recorded Absolute DNA transfection efficiency in HEK293 cells for entry CCCCCCCCCCCCN(CCCCCCCCCCCC)c1nc(NCCCN2CCOCC2)nc(SCCCCCCCCC)n1 [S9^2N12 D8] equals 0.0

The compound listed as CCCCCCCCCCCCCCCCCCSc1nc(NCCCCCCCCCCC)nc(NCCCN2CCN(C)CC2)n1 [S18N11 D9] shows Absolute DNA transfection efficiency in HEK293 cells equal to 2.9

Consider CCCCCCCCCCCSc1nc(NCC2CCN(C)CC2)nc(SCCCCCCCC)n1 [S8S11 D10] . Its measured Absolute DNA transfection efficiency in HEK293 cells is 42.4

Absolute DNA transfection efficiency in HEK293 cells measured on CCCCCCCCCCSc1nc(NCCCCCCCC)nc(NCC2CCN(C)CC2)n1 [S10N8 D10] = 0.6

The compound listed as CCCCCCCCNc1nc(NCCN2CCN(C)CC2)nc(SCCCCCC)n1 [S6N8 D5] shows Absolute DNA transfection efficiency in HEK293 cells equal to 3.4

The compound listed as CCCCCCCCCCCCCCCCNc1nc(NCCCN2CCN(C)CC2)nc(SCCCCCCCCCCCCCC)n1 [S14N16 D9] shows Absolute DNA transfection efficiency in HEK293 cells equal to 0.9

Absolute DNA transfection efficiency in HEK293 cells reading for CCCCCCCCCCCCNc1nc(NCC2CCN(C)CC2)nc(SCCCCCCCCCC)n1 [S10N12 D10] : 6.8

----------
Would you kindly list Absolute mRNA transfection efficiency in HEK293 cells for each of these molecules?
# Test system: HEK293 cells
# procedureDetails: Preliminary screening as mRNA vectors, EGFP mRNA transfection of HEK293 cells
# Type: cell-based
# statedConditions: HEK293 cells, 96-well plates, EGFP mRNA 50 ng per well; percentage of GFP fluorescent cells relative to total number of cells (Hoechst)
API: value field is a number in %; no unit string.

Field Absolute mRNA transfection efficiency in HEK293 cells (entry CCCCCCCCCCCCCNc1nc(NCCCCCCCCCCC)nc(NCCN(C)C)n1 [Compound N11N13D1] ) reads 5.9

response.value for CCCCCCCCCCCCNc1nc(NCCN2CCCC2)nc(N(CCCCCCCCCCCC)CCCCCCCCCCCC)n1 [N12^2N12D3] (field: Absolute mRNA transfection efficiency in HEK293 cells) = 5.8

The molecule listed as CCCCCCCCCCCCCCSc1nc(NCCN2CCCCC2)nc(SCCCCCCCC)n1 [Compound S8S14D4] shows Absolute mRNA transfection efficiency in HEK293 cells equal to 3.1

Record CCCCCCCCCCCCCCCSc1nc(NCCCN2CCOCC2)nc(SCCCCCCCCCCCCCCC)n1 [Compound S15S15D8] , field Absolute mRNA transfection efficiency in HEK293 cells: 0.2

The molecule listed as CCCCCCCCCCCCCNc1nc(NCCCCCCCC)nc(NCCN(C)C)n1 [Compound N8N13D1] shows Absolute mRNA transfection efficiency in HEK293 cells equal to 0.0

Lab note: CCCCCCCCCNc1nc(NCCCCCCCCC)nc(NCC2CCN(C)CC2)n1 [Compound N9N9D10] gave Absolute mRNA transfection efficiency in HEK293 cells of 0.8

The molecule listed as CCCCCCCCCCCCCCCNc1nc(NCCCCCCCCC)nc(NCCN2CCN(C)CC2)n1 [Compound N9N15D5] has a reported Absolute mRNA transfection efficiency in HEK293 cells of 1.8

Absolute mRNA transfection efficiency in HEK293 cells recorded for this molecule, CCCCCCCCCCCCCCCNc1nc(NCC2CCN(C)CC2)nc(N(CCCCCCCCCCCC)CCCCCCCCCCCC)n1 [N15^2N12D10] , is 3.5

----------
# System: HEK293 cells
# procedureDetails: Preliminary screening as DNA vectors, GFP transfection of HEK293 cells
# Format: cell-based
# statedConditions: HEK293 cells; lipid/DOPE liposome with 75 ng plasmid DNA (psin-EGFP-IRES-Puro); number of cells expressing GFP divided by total number of nuclei (Hoechst)
Please enter Criterion met where Absolute DNA transfection efficiency in HEK293 cells is greater than or equal to 1%, and Criterion not met where it is lower.

Could you tell me if the measured Absolute DNA transfection efficiency in HEK293 cells of "CCCCCCCCCCCCCCCCSc1nc(NCCN2CCN(C)CC2)nc(SCCCCCCCCCCCCCCC)n1" reaches 1% or more?
Criterion not met

Is Absolute DNA transfection efficiency in HEK293 cells for "CCCCCCCCCCCCCCCCCCSc1nc(NCCN2CCN(C)CC2)nc(SCCCCCCCCCCCC)n1" at or above 1%?
Criterion not met

Does "CCCCCCCCCCCCCCSc1nc(NCCCN2CCN(C)CC2)nc(SCCCCCCCCCC)n1" have a reported Absolute DNA transfection efficiency in HEK293 cells of at least 1%?
Criterion met

Is reported Absolute DNA transfection efficiency in HEK293 cells greater than or equal to 1% here: "CCCCCCCCCCCCN(CCCCCCCCCCCC)c1nc(NCCCCCCC)nc(NCCCN2CCOCC2)n1"
Criterion met

API: above_or_equal(metric=Absolute DNA transfection efficiency in HEK293 cells, cutoff=1%) for item "CCCCCCCCCCCCSc1nc(NCCN(CC)CC)nc(SCCCCCCCCC)n1"
Criterion met

Can "CCCCCCCCCCCCCCCCSc1nc(NCCCN2CCN(C)CC2)nc(SCCCCCCCCCCC)n1" be said to have Absolute DNA transfection efficiency in HEK293 cells at or above 1%?
Criterion met

Record "CCCCCCCCCCCCCCCSc1nc(NCCN(CC)CC)nc(SCCCCCCCCCC)n1" ; criterion: Absolute DNA transfection efficiency in HEK293 cells no lower than 1%. Met?
Criterion met

Test whether the compound "CCCCCCCCCCCSc1nc(NCCCN2CCOCC2)nc(SCCCCCCCCCC)n1" records Absolute DNA transfection efficiency in HEK293 cells of 1% or higher.
Criterion met

Determine whether this compound has Absolute DNA transfection efficiency in HEK293 cells no lower than 1%: "CCCCCCCCCCCCCCCCCCSc1nc(NCCCN(C)C)nc(SCCCCCCCCCCCCCC)n1"
Criterion met

Check the entry "CCCCCCCCCCCCCNc1nc(NCCN2CCCC2)nc(N(CCCCCCCCCCCC)CCCCCCCCCCCC)n1" : does Absolute DNA transfection efficiency in HEK293 cells equal or exceed 1%?
Criterion not met

Reported Absolute DNA transfection efficiency in HEK293 cells reaches at least 1% for "CCCCCCCCCCCCCNc1nc(NCCCCCCCCCCCCC)nc(NCCCN(C)C)n1" ?
Criterion met

Has "CCCCCCCCCCCCCCCCCCNc1nc(NCCCCCCCCCCCCC)nc(NCCCN2CCN(C)CC2)n1" a recorded Absolute DNA transfection efficiency in HEK293 cells greater than or equal to 1%?
Criterion met

Decide: Absolute DNA transfection efficiency in HEK293 cells of "CCCCCCCCCCCCCCCCCCNc1nc(NCCCCCCCCCCCCCCCCCC)nc(NCCCN2CCOCC2)n1" >= 1%?
Criterion not met

Identify whether the reported Absolute DNA transfection efficiency in HEK293 cells of the following compound is 1% or greater: "CCCCCCCCCCCCCCCNc1nc(NCCCCCC)nc(NCCN(CC)CC)n1"
Criterion not met

hey, is Absolute DNA transfection efficiency in HEK293 cells for this one >= 1%? "CCCCCCCCCCCCCCCCCCSc1nc(NCCN2CCCCC2)nc(SCCCCCCCC)n1"
Criterion met

Given "CCCCCCCCCCCCCNc1nc(NCCCCCCCCCCC)nc(NCCCN2CCN(C)CC2)n1" , state whether its Absolute DNA transfection efficiency in HEK293 cells is at least 1%.
Criterion not met

----------
Provide the recorded Encapsulation rate for the entries that follow.
# procedureDetails: Encapsulation rate of LNP RNA (Qubit RNA HS Assay kit)
# Type: physicochemical
# statedConditions: LNPs, Formulation method 2
Field format: number, assumed %, no unit text.

The reported Encapsulation rate of the molecule "CCCCCCCCCCCCCCCCSc1nc(NCCCCCCCCC)nc(NCCN2CCCC2)n1" was 99.1

Kindly note the recorded Encapsulation rate for "CCCCCCCCCCCCSc1nc(NCCCN2CCOCC2)nc(SCCCCCCCCCCC)n1" , which is 98.9

Entry "CCCCCCCCCCCCCCCSc1nc(NCCCCCCCCCCC)nc(NCCN2CCN(C)CC2)n1" , Encapsulation rate reported as 98.8

// recorded Encapsulation rate for "CCCCCCCCCCCCCCCCSc1nc(NCCN2CCN(C)CC2)nc(SCCCCCCCCC)n1" : 99.6
